Biological target: Pan-species-specific antigen Plasmodium Lactate DeHydrogenase (Pan-PLDH) protein
Assay: indirect ELISA, recombinant MA protein coated 1 ug/ml, antibody 200 ng/ml
readout-type: OD value at 450 nm (refer to 630 nm) (OD)
Answer in OD, number only, no unit symbol.

query: Using known records, supply OD value at 450 nm (refer to 630 nm) for anti-Pan-PLDH 9G7 monoclonal antibody (antibody, mouse IgG2b, kappa, V domains shown) VH: QVQLQQPGAELVRPGASVKLSCKASGSSFTNYFMNWVKQRPGQGLEWIGMINPSESETRINQKFKDKATLTVDKSSSTAYMQLSSLTAEDSAVYYCAKSGDFYTSYWDYWGQGTTLTVSS VL: DIQLTQSPASLSASVGETVTITCRGSGNLHNYIAWYQQKQGKSPQLLVYNARTIADGVPSRFSGSGSGTQYSLKINSLQPEDFGSYYCQSFWSSYTFGGGTKLEIKR
result: 1.82
